test system: MCF7; test: NCI tumour cell line growth inhibition, 48 h
Calls of active or inactive are those of the source. Cut-off read from the data, not from the text of the source: active = GI50 up to about 1.1 µM and inactive = higher.
The reply should name one outcome from active, inactive

Examples from the recorded data:
[
  {
    "Compound": "O=C1O[C@H]2C3C4CCC(C4[C@@H]2I)[C@H]13 (stereo partly specified)",
    "Target of assay": "MCF7",
    "Classification": "inactive"
  },
  {
    "Compound": "O=C1/C(=C/c2ccc([N+](=O)[O-])cc2)Sc2scc(-c3cccc([N+](=O)[O-])c3)[n+]21",
    "Target of assay": "MCF7",
    "Classification": "inactive"
  },
  {
    "Compound": "CCOC(=O)CC[C@H](NC(=O)[C@H](N)Cc1ccc(N(CCCl)CCCl)cc1)C(=O)OCC",
    "Target of assay": "MCF7",
    "Classification": "inactive"
  }
]

Call for entry Cc1ccc(S(=O)(=O)N(CC(O)c2ccccc2)c2ccccc2F)cc1 (stereo unspecified) :
inactive

Call for entry `COc1cc2c(cc1OCc1ccccc1)NC(=O)[C@@H]1CCCN1C2=O` :
inactive

Call for entry CN(C)CC1CCC/C(=C\c2ccccc2)C1=O (stereo unspecified) :
active

Call for entry OC1C2CCC3C2CC(C(O)(c2ccccc2)c2ccccc2)C13 (stereo unspecified) :
inactive

Call for entry O=c1/c(=C\c2ccccc2)sc2n1C(c1ccccc1)C1(O)CCCCC1N=2 (stereo unspecified) :
inactive

###

system: NCI-H460; assay: NCI tumour cell line growth inhibition, 48 h
Calls of active or inactive are those of the source. Rule as the data show it: active = GI50 up to about 1.1 µM and inactive = higher.
The reply should name one outcome from 1.0 for active, 0.0 for inactive

Examples from the recorded data:
[
  {
    "Molecule": "O=C1NC(c2cccc3ccccc23)Nc2ccccc21 (configuration not stated)",
    "Classification": 1.0
  },
  {
    "Molecule": "CN(C)NC(=O)/C(=C/c1ccc(Cl)cc1)NC(=O)c1ccccc1",
    "Classification": 0.0
  },
  {
    "Molecule": "O=C1c2ccccc2C(=O)c2[nH]c(=O)c(/C=N/Nc3ccc([N+](=O)[O-])cc3)nc21",
    "Classification": 0.0
  },
  {
    "Molecule": "CN(C(=O)C12C3C4C1C1C2C3C41C(N)=O)C(C)(C)C (configuration not stated)",
    "Classification": 0.0
  },
  {
    "Molecule": "CCCNc1ncnc2[nH]ncc12",
    "Classification": 0.0
  }
]

Call for entry O=C(CCCN1CCC(C(O)c2ccc(F)cc2)CC1)c1ccc(F)cc1 (configuration not stated) :
0.0

Call for entry CCOc1cc(C2SCC(=O)N2c2ccc3c(c2)Oc2c(Cl)c4c(c(Cl)c2=N3)Oc2cc(N3C(=O)CSC3c3ccc(O)c(OCC)c3)ccc2N=4)ccc1O (configuration not stated) :
0.0

Call for entry N=C(N)NCC(N)C(=O)O (configuration not stated) :
0.0

###

test system: SK-MEL-2; assay: NCI tumour cell line growth inhibition, 48 h
The source made the active and inactive calls. No stated cut-off is given here; in the data, active = GI50 up to about 1.1 µM and inactive = higher.
Endpoint: GI50

[
  {
    "Compound": "O=C(c1nc2ccc([N+](=O)[O-])cc2nc1O)C(O)c1ccc2c(c1)OCO2 (stereo not given)",
    "GI50": "> 100 µM (inactive)"
  }
]

What GI50 value was documented for this compound, `O=C1/C(=C/c2ccc([N+](=O)[O-])cc2)Sc2scc(-c3cccc([N+](=O)[O-])c3)[n+]21` ?
13.9 µM (inactive)

What GI50 value was documented for this compound, `O=C1c2ccccc2C(=O)c2nc3ccc(Cl)cc3cc21` ?
> 100 µM (inactive)

What GI50 value was documented for this compound, `Clc1ccc(/N=C/c2cc3cc(Br)ccc3nc2Cl)cc1` ?
10.8 µM (inactive)

What GI50 value was documented for this compound, `N/C(=N\c1ccccc1Cl)c1ccccc1N` ?
> 100 µM (inactive)

What GI50 value was documented for this compound, `CCOC(=O)CC[C@H](NC(=O)[C@H](N)Cc1ccc(N(CCCl)CCCl)cc1)C(=O)OCC` ?
29.4 µM (inactive)

What GI50 value was documented for this compound, `CC(C)(C)c1cc(/C=C2/NC(=O)NC2=O)cc(C(C)(C)C)c1O` ?
13.8 µM (inactive)

What GI50 value was documented for this compound, CCOc1cc(C2SCC(=O)N2c2ccc3c(c2)Oc2c(Cl)c4c(c(Cl)c2=N3)Oc2cc(N3C(=O)CSC3c3ccc(O)c(OCC)c3)ccc2N=4)ccc1O (stereo not given) ?
27.5 µM (inactive)

What GI50 value was documented for this compound, CC(=O)OCC1=CC2CCC3C(C)(CCC[C@]3(C)COC(C)=O)C23CC[C@H]1C3 (stereo not given in full) ?
33.8 µM (inactive)

What GI50 value was documented for this compound, COc1ccc(C2CC(c3c(O)ccc4ccccc34)=NN2c2ccc([N+](=O)[O-])cc2[N+](=O)[O-])cc1OC (stereo not given) ?
19.4 µM (inactive)
